- studySystem: PRKX (human) (UniProt P51817)
- Sequence (P51817 whole entry, looked up): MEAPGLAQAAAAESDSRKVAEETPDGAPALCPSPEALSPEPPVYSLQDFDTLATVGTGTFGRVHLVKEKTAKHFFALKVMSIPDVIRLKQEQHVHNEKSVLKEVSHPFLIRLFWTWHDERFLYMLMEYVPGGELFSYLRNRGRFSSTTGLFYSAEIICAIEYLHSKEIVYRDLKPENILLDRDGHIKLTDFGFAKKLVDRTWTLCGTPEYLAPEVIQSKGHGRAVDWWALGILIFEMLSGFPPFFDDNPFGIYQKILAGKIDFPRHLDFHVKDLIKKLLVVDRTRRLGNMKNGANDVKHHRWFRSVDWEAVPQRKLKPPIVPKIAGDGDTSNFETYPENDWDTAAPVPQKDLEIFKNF
- assayProtocol: KINOMEscan competition binding
- setupConditions: compound 10.0 µM
outcomeMeasure: kinase still bound, per cent of control (%)
State the answer as a number, implicitly in %.

Worked cases, answers included:
INSERT INTO measurements (compoundstructurestring, studysystem, testvalue) VALUES
  ('COc1ccc(CNC(=O)Nc2ncc([N+](=O)[O-])s2)cc1', 'PRKX (human) (UniProt P51817)', 42),
  ('O=C1Nc2cc(Br)ccc2/C1=C1/Nc2ccccc2/C1=N\O', 'PRKX (human) (UniProt P51817)', 100),
  ('Cc1cnc(-c2cnc(NCCNc3ccc(C#N)cn3)nc2-c2ccc(Cl)cc2Cl)[nH]1', 'PRKX (human) (UniProt P51817)', 100);

## Task Which kinase still bound, per cent of control value belongs to Cn1cc(C2=C(c3ccc(Cl)cc3Cl)C(=O)NC2=O)c2ccccc21 ?
## Result 100
